- System: Mycobacterium tuberculosis
- assay overview: Cornell - Phenotypic assay to identify agents that inhibit growth of Mycobacterium tuberculosis
- Format: functional
- Design: scale not given: direction of the effect not stated beside the values
- condition details: 10 mM as filed; unlikely as a test dose
Out of some 53,000 compounds screened, about 900 (1.7%) showed an effect of 50% or more. The list comes from a sample in which strong results are over-represented; it also holds close analogues and randomly drawn compounds.
Could you please mark Criterion met for values of Percent Effect below 10% and Criterion not met for values at or above it?

-- ask Input `CCS(=O)(=O)N1CC(c2nc(-c3cccs3)no2)C1` ; condition: Percent Effect strictly below 10%. Does it hold?
-- reply Criterion met

-- ask Problem: For the compound `c1ccc(-c2cc(CN3C[C@@H]4CC[C@H](C3)N(CC3CC3)C4)on2)cc1` , is Percent Effect under 10%?
-- reply Criterion not met

-- ask # strict comparison: is reported Percent Effect < 10%? input = `Cc1cc(C(=O)N2C[C@@H]3OCCN(CCN4CCCC4)[C@@H]3C2)c(C)o1.O=C(O)C(F)(F)F`
-- reply Criterion met

-- ask Bench note: check whether COc1ccc(CNC(C)c2cnn(C)c2)cc1OC1CCCC1 (stereo not given) shows Percent Effect below 10%
-- reply Criterion met

-- ask Percent Effect under 10%? Item: `O=C(O)C(F)(F)F.O=C(O)C(F)(F)F.c1cnn(CCCO[C@@H]2CC[C@H]3[C@H]2OCCN3CC2CCOCC2)c1`
-- reply Criterion met

-- ask Consider Cc1ccc(CN2CCC3(C2)C(=O)N(CC(N)=O)c2ccccc23)s1 (stereo not given) . Does its Percent Effect lie strictly below 10%?
-- reply Criterion met

-- ask Just wondering, is Percent Effect of `Cc1ccc(CNC(C)(C)c2noc(C(C)(C)C)n2)o1` below 10%?
-- reply Criterion met

-- ask Please check: Percent Effect for `COc1c(C)cnc(CN(C)C(=O)c2cccc(NC(N)=O)c2)c1C` , strictly under 10% or not?
-- reply Criterion not met

-- ask Below 10% on Percent Effect? Entry `Cn1ccc(-c2cc(C(=O)N3CCC(O)CC3)c3ccccn23)n1`
-- reply Criterion met

-- ask Decide: Percent Effect of `NC(=O)c1cn2cc(-c3ccccc3Cl)n(CC3CC3)c(=O)c2n1` strictly below 10%?
-- reply Criterion not met

-- ask Quick check: Percent Effect of `CCc1ccc2c(C3CN(S(C)(=O)=O)C3)ncn2c1` under 10%?
-- reply Criterion not met

-- ask Does this compound meet the criterion Percent Effect < 10%? COc1cccc(OC)c1CNC(Cc1ccsc1)c1ccc(C)cn1 (stereo not given)
-- reply Criterion not met

-- ask I wonder whether `COc1c(C)cnc(CN(C)C(=O)Nc2ccc3c(c2)CCO3)c1C` has Percent Effect below 10%. Can you tell?
-- reply Criterion not met

-- ask Input `c1ccc(-c2cc(CN3C[C@H]4CC[C@H]3C4)on2)cc1` ; condition: Percent Effect strictly below 10%. Does it hold?
-- reply Criterion not met

-- ask Please state whether Percent Effect is below 10% for `Cc1noc(C)c1-c1cccc(C2CCN(S(=O)(=O)N(C)C)CC2)n1`
-- reply Criterion not met

-- ask Please state whether Percent Effect is below 10% for `COCCN(C)Cc1cn(C)nc1-c1ccc2c(c1)OCCO2`
-- reply Criterion met

-- ask Just wondering, is Percent Effect of NC(=O)C1CCCN1Cc1cccc(NC(=O)c2ccc(Cl)cc2F)c1 (stereo not given) below 10%?
-- reply Criterion met

-- ask Find out if reported Percent Effect for `c1ccc(-c2cc(CN3C[C@@H]4CC[C@H](C3)N(CC3CCC3)C4)on2)cc1` is less than 10%
-- reply Criterion not met

-- ask A record lists `Cn1ccc(-c2cc(C(=O)N3CCC(C(N)=O)CC3)c3ccccn23)n1` . Is its Percent Effect below 10%?
-- reply Criterion not met

-- ask Report whether reported Percent Effect is lower than 10% (strictly) for Cc1nnc(C2Cc3ccccc3CN2Cc2ncc(Cl)n2C)o1 (stereo not given)
-- reply Criterion met

-- ask Consider the compound `Cn1ccc(-c2cc(C(=O)N3CCOCC3)c3ccccn23)n1` . Is its Percent Effect strictly less than 10%?
-- reply Criterion met

-- ask Is Percent Effect of `COc1cccc([C@@H]2N[C@H](c3nccs3)Cc3ccsc32)c1OC` strictly below 10%?
-- reply Criterion not met

-- ask Consider the compound `Cc1cnc(-c2nc(O)c3c(n2)CN(C(=O)C2CCCC2)CC3)cn1` . Is its Percent Effect strictly less than 10%?
-- reply Criterion met

-- ask Field: below-cutoff. Rule: recorded Percent Effect strictly less than 10%. Subject: O=C(O)C(F)(F)F.c1cnc(N2CCC3(COCc4cnc(-c5cccnc5)nc43)C2)nc1 (stereo not given)
-- reply Criterion met

-- ask Is 10% strictly greater than the compound's reported Percent Effect? compound: `COc1ccc(OC)c([C@@H]2N[C@H](c3nccs3)Cc3ccsc32)c1`
-- reply Criterion not met

-- ask Hi there! Is Percent Effect for `O=C(c1cc(-c2ccn(CC3CC3)n2)n2ccccc12)N1CCCO1` below 10%, do you know?
-- reply Criterion not met

-- ask # check: Percent Effect < 10% for `CCCNC(=O)CCNC(=O)N1CCC(=Cc2ccccc2)CC1`
-- reply Criterion met

-- ask Answer whether the compound COc1ccc(CNC(Cc2ccsc2)c2ccc(C)cn2)c(OC)c1 (stereo not given) has Percent Effect strictly less than 10%
-- reply Criterion not met

-- ask Find out if reported Percent Effect for `COc1cc2nc(NCc3scnc3C)nc(N)c2cc1OC` is less than 10%
-- reply Criterion not met

-- ask Percent Effect under 10%? Item: CCC(C)CNc1ccc2oc(COC)nc2c1 (stereo not given)
-- reply Criterion not met

-- ask Quick check: does `Cc1nnsc1C(=O)N1CCC(c2nc3ccccc3[nH]2)CC1` have Percent Effect under 10%?
-- reply Criterion met

-- ask Check if Percent Effect falls below 10% for `COCc1noc(CN2C[C@H](NS(C)(=O)=O)[C@@H](C3CC3)C2)n1` .
-- reply Criterion not met

-- ask Percent Effect under 10%? Item: O=C(O)C(F)(F)F.O=S(=O)(NCC1COCc2c(-c3ccncc3)nnn2C1)C1CC1 (stereo not given)
-- reply Criterion not met

-- ask For `Cl.c1csc(-c2noc(C3CNC3)n2)c1` , is the recorded Percent Effect below the cut-off of 10%?
-- reply Criterion not met

-- ask Please check: Percent Effect for `CC(C)CNC(=O)c1cc2c(s1)CCN2S(C)(=O)=O` , strictly under 10% or not?
-- reply Criterion met

-- ask is_below(Percent Effect, 10%) for COc1cccc(C(C)N2CCN(S(C)(=O)=O)CC2)c1 (stereo not given) ?
-- reply Criterion met

-- ask Below 10% on Percent Effect? Entry `CCOCC(=O)N1C[C@@H]2CC[C@H](Oc3ccccc3)[C@@H]2C1`
-- reply Criterion met

-- ask Here's an entry: CNC(=O)c1cccc(C2CNCCN2C(=O)C2CCNCC2)c1 (stereo not given) . Is its Percent Effect below 10%?
-- reply Criterion met

-- ask Percent Effect under 10%? Item: `COc1ccc(CN2CCn3cc(CN4CCN(C)CC4)nc3C2)cc1.O=C(O)C(F)(F)F.O=C(O)C(F)(F)F.O=C(O)C(F)(F)F`
-- reply Criterion met

-- ask Just wondering, is Percent Effect of CC1CCN(C(=O)NCCc2cc(F)ccc2F)C1 (stereo not given) below 10%?
-- reply Criterion not met

-- ask Hello, is Percent Effect of the following compound strictly smaller than 10%? O=S(=O)(c1cccnc1)N1CCC(OCCCc2ccccc2)C1 (stereo not given)
-- reply Criterion not met

-- ask API: query returns whether the compound falls strictly under 10% in Percent Effect. Query: `CNC(=O)N1CCC(=Cc2ccccc2)CC1`
-- reply Criterion not met

-- ask Consider CCCC(C#N)NC(=O)c1cc(Br)c2c(c1)OCCO2 (stereo not given) . Does its Percent Effect lie strictly below 10%?
-- reply Criterion not met

-- ask Lab note: Percent Effect threshold 10%. Does this compound come in strictly under it? `C1CC(CN2C[C@H]3CC[C@@H]2CN(Cc2nnc(C4CC4)o2)C3)C1`
-- reply Criterion not met
